self-cleavage values by entry
B1: Osa-1-4 twister ribozyme (parent)
chain: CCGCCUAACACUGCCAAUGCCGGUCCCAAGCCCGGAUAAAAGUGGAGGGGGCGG

Variants of: B1
assayNotes: self-cleavage, relative activity (ratio to wild type); higher = more cleavage; co-transcriptional
measuredParameter: self-cleavage

> print(dat)
                                         seq  measvalue
 1  CCGCCUAACACUGCCAAUGCCGGUCCAAAGCCCGAAUAAAAGUGGAGGGGGCGG [C27A G35A]       0.39
 2  CCGCCUAACACUGCCAAUGCCGGUCCCGAGCCCGGAUAAAAGUGGAGGGUGCGG [A28G G50U]       0.23
 3  CCGCCUAACGCUGCCAAUGCCGGUCCCAAGCCCGGAUAAAAGUGGAGGGGGCGU [A10G G54U]       0.89
 4  CCGCCUAACACUGCCAAUGCCGGUCCCAAGCCCGGAUAAAAGAGGAGGCGGCGG [G49C U43A]       0.08
 5  CCGCCUAACACUGCCAAUGCCGGUCCCAAACCCGGAUAAAAGCGGAGGGGGCGG [G30A U43C]       0.02
 6  CCGCCUAACACUGCCAAUGCCGGUCCCAAGCCCGGAUAAAACUGGAGGAGGCGG [G42C G49A]       0.06
 7  CCGCCUAACACUGGCAAUGCCGGUCCCAAGCCCGGACAAAAGUGGAGGGGGCGG [C14G U37C]       0.19
 8  CCGCCUAACACUGCCAAUGCCGGUCCCAAGCUCGGAUAAAAGUGGAUGGGGCGG [C32U G47U]       0.06
 9  CCGCCUAACACUGCCAAUGCCGGUCCCAAGCCCGUAUAAAAUUGGAGGGGGCGG [G35U G42U]       0.08
10  CCGCCUAACACUGCCAAUGCCGGUCCCAAGCCCGUCUAAAAGUGGAGGGGGCGG [A36C G35U]       0.95
11  CCGCCUAGCACUGCCAAUGCCGGUCCCAAGCCCGGAUAAAAGUGGAGGGGGCGG [A8G]       0.71
12  CCGCCUAACACUGCCAAUGCCGGUCCCAAGCCCGGAUAAUAGUGGAGGGGGCUG [A40U G53U]       0.11
13  CCGCCUAACACUGCCAAUUCCGGUCCCAAGCCCGGAUAAUAGUGGAGGGGGCGG [A40U G19U]       0.08
14  CCGCCUAACACUGCCAAUGCGGGUCCCACGCCCGGAUAAAAGUGGAGGGGGCGG [A29C C21G]       0.02
15  CCGCCUAACACUGCCAAUGCCGGUCCCAAGCCCGGAAAAAAGUGGAGGGGGCGG [U37A]       0.79
16  CCGCCUAACACUGCCAAGGCCGGUCCCAAGCCCGGAUAAAAGUGGCGGGGGCGG [A46C U18G]       0.14
17  CCGCCUAACACUGCCAAUGCUGGUCCCAAGCCCGGAUAAAAGUGGGGGGGGCGG [A46G C21U]       0.09
18  CCGCCUAACACUGCCAAUGCCGGUCCCAAGCCCGGAUAUAAGUGGAGGGGGAGG [A39U C52A]       0.96
19  CCGCCUAACACUGCCAAUGCAGGUCACAAGCCCGGAUAAAAGUGGAGGGGGCGG [C21A C26A]       0.05
20  CCGCCUAACACUGCUAAUGCCGGUCCCAAGGCCGGAUAAAAGUGGAGGGGGCGG [C15U C31G]       0.06
21  CCGCCUAACACUGCCAAUGCCGGUCCCAAGCCCGGAUAAUAGUCGAGGGGGCGG [A40U G44C]       0.43
22  CCGCCUAACACUGCCAAUGCCGGUCCCAAGCCCGUAUAAAAGUGCAGGGGGCGG [G35U G45C]       0.06
23  CCGCCUAACACUGCCAAUGCCGGUCCCAAGCCCGGAUAAAAUUGAAGGGGGCGG [G42U G45A]       0.05
24  CCGCCUAACACUGCCAAUGCCGGUCCCAAGCCCGGAUAAAAGUGGACGGUGCGG [G47C G50U]       0.07
25  CCGCCUAACACUGCCAAUGCCGGUCCCAAGCCCGGUUAAAAGUGCAGGGGGCGG [A36U G45C]       0.05
26  CCGCCUAGCACUGCCAAUGCCGGUCUCAAGCCCGGAUAAAAGUGGAGGGGGCGG [A8G C26U]       0.18
27  CCGCCUAACCCUGCCAAUGCCGGUCCCAAGCGCGGAUAAAAGUGGAGGGGGCGG [A10C C32G]       0.02
28  CCGCCUAACACUGCUAAUGCCGGUCGCAAGCCCGGAUAAAAGUGGAGGGGGCGG [C15U C26G]       0.06
29  CCGCCUAACACUGCCAAUGCCGGUCCCAAGCCCAGAUAAAAGUUGAGGGGGCGG [G34A G44U]       0.58
30  CCGCCUACCACUGCCAAUGCCGGUCCCAAGCGCGGAUAAAAGUGGAGGGGGCGG [A8C C32G]       0.03
31  CCGCCUAACACUGCCAAUGCCGGUCCCAAGCCCGUAUACAAGUGGAGGGGGCGG [A39C G35U]       0.84
32  CCGCCUAACACUGCCAAUGCGGGUCCCAAGCCCGGAUAAAAGAGGAGGGGGCGG [C21G U43A]       0.09
33  CCGCCUAACACUCCCAAUGCCGGUCCCAAGCCCGGCUAAAAGUGGAGGGGGCGG [A36C G13C]       0.03
34  CCGCCUAACACUGCCAAUGCCGGCCCCAAGCCCGGAUAAACGUGGAGGGGGCGG [A41C U24C]        0.1
35  CCGCCUAAUACUGCCAAUGCCGGUCCCAAGCCCGGAUAAAAGUGGAGGGGACGG [C9U G51A]       0.28
36  CCGCCUAACACUGCGAAUGCCGGUCCCAAGCCCGGAUAAAAGUGGAGGGCGCGG [C15G G50C]       0.14
37  CCGCCUAACACUGCUAAUGCCGGUCCCAAGCCCGGUUAAAAGUGGAGGGGGCGG [A36U C15U]       0.31
38  CCGCCUAACAGUGCCAAUGCGGGUCCCAAGCCCGGAUAAAAGUGGAGGGGGCGG [C11G C21G]       0.04
39  CCGCCUAACACUGCCAAUGCCGGUGCCAAGCCCGGAUAAAAGUGGAGUGGGCGG [C25G G48U]       0.02
40  CCGCCUAACACUCCCAAUGCCGGUCCCAAGCCCGGAUAAAAGUGGCGGGGGCGG [A46C G13C]       0.01
41  CCGCCUAAUACUGCCAAUGCCGGUCCCAAGCCCGGAUAAACGUGGAGGGGGCGG [A41C C9U]       0.79
42  CCGCCUAACACUGCCAAUGCCGGUUCCAAUCCCGGAUAAAAGUGGAGGGGGCGG [C25U G30U]       0.05
43  CCGCCUAACACUGCCAAAGCCGGUCCUAAGCCCGGAUAAAAGUGGAGGGGGCGG [C27U U18A]       0.24
44  CCGCCUAACACUGCCCAUGCCGGUCCCAAGCCCGGAUAAAAGUGGAGGGCGCGG [A16C G50C]       0.82
45  CCGCCUAACAAUGCCAAUGCCGGUCCCAAGCCCGGAUAAAAGUGGAGGGGGUGG [C11A C52U]        0.9
46  CCGCCUAACACGGCCAAUGCCGGUCCCAAGCCCGGAUGAAAGUGGAGGGGGCGG [A38G U12G]       0.41
